Recorded IC50 for the following molecules
biological target: Heat shock protein HSP 90-beta (Homo sapiens); experiment: Inhibition of Hsp90
Sequence (P08238 whole entry): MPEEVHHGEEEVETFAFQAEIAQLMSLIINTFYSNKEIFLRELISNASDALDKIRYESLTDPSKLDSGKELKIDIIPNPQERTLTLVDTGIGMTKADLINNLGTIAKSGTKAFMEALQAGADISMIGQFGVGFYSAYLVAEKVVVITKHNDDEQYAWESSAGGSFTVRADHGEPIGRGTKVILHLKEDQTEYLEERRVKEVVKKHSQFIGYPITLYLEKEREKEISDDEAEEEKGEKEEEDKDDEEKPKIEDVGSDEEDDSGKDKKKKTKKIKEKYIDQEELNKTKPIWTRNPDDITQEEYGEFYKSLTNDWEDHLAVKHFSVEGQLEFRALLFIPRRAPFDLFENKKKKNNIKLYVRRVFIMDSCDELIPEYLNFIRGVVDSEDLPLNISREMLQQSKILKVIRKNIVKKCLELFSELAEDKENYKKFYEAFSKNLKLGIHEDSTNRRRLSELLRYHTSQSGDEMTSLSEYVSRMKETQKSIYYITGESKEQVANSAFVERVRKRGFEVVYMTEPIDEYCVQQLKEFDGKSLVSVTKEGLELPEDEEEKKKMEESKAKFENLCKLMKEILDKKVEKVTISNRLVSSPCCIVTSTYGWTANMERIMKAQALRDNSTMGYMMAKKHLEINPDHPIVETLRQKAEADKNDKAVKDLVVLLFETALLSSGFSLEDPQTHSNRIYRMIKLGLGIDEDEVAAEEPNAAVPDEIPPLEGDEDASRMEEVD
EXPERIMENTAL ENDPOINT: IC50 (nM)

>  <SMILES DATA>
C[C@@H]1C/C=C/CC/C=C/C(=O)Cc2c(Cl)c(O)cc(O)c2C(=O)O1

>  <MEAS VALUE>
80

$$$$
>  <SMILES DATA>
C[C@H]1CCCC(=O)CCCCCc2cc(O)cc(O)c2C(=O)O1

>  <MEAS VALUE>
90

$$$$
>  <SMILES DATA>
C[C@H]1C[C@H]2O[C@@H]2CC/C=C/C(=O)Cc2c(Cl)c(O)cc(O)c2C(=O)O1

>  <MEAS VALUE>
90

$$$$
>  <SMILES DATA>
Cc1nc(-c2c(-c3ccc(O)cc3O)noc2C(F)(F)F)cs1

>  <MEAS VALUE>
9000

$$$$
